Measured Target: recombinant human CD3ε/δ heterodimer (human) (UniProt P07766)
Sequence (P07766 23-126, stated change not applied, chain 1 of 2): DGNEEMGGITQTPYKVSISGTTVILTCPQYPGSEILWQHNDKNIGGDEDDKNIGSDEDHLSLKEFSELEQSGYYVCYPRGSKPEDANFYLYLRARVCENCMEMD
Sequence (P04234 22-105, stated change not applied, chain 2 of 2, further chain): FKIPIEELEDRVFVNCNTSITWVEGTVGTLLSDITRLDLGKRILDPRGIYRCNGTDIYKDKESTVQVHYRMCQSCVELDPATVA
Test Method Notes: ELISA, coated CD3ε/δ
Measured Parameter: Absorbance (450 nm)
Quick one: just the number, no unit, thanks!

[[record]]
binder = "F11 (antibody, human IgG1, lambda, L234A L235A, V domains shown) VH: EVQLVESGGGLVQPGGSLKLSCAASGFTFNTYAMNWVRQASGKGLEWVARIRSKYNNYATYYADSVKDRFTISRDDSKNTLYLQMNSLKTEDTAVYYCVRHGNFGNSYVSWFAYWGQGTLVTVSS VL: QAVVTQEPSLTVSPGGTVTLTCRSSTGAVTTSNYANWVQQKPGQAPRTLIGGTNKRAPWTPARFSGSLLGGKAALTLSGAQPEDEAEYYCALWYSNLWVFGGGTKLTVLG"
measured_parameter = "Absorbance (450 nm)"
value_observed = 0.138

[[record]]
binder = "F14 (antibody, human IgG1, lambda, L234A L235A, V domains shown) VH: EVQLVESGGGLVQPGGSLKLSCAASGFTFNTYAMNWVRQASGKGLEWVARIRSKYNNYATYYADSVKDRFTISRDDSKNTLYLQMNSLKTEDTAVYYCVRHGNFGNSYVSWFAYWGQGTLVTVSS VL: QAVVTQEPSLTVSPGGTVTLTCRSSTGAVTTSNYANWVQQKPGQAPRGLIYGTNKRAPWTPARFSGSLLGDKAALTLSGAQPEDEAEYYCALWYSNLWVFGGGTKLTVLG"
measured_parameter = "Absorbance (450 nm)"
value_observed = 0.114


Exercise: I have this binder here, H14 (antibody, human IgG1, lambda, L234A L235A, V domains shown) VH: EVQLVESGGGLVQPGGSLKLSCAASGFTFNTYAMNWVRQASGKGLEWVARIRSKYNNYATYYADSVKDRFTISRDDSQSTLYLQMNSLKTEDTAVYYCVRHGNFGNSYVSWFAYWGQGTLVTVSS VL: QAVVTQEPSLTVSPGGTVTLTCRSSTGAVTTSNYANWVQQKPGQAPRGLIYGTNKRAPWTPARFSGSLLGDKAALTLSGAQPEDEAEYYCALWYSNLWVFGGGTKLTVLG , and I need its recorded Absorbance (450 nm).
Key: 0.096
